Measurement context: buffer; pH 7.4; 200.0 µM
This section presents compounds with their documented solubility kinetic values.
Recorded metric: solubility kinetic

> print(dat)
                                    compound     recorded.metric  experimental.value
 1     Cc1cccc(C(=O)Nc2sc3c(c2C(=O)O)CCC3)c1  solubility kinetic        > 45.2 µg/mL
 2          O=C(CN1C(=O)CNC1=O)Nc1ccc(Cl)cc1  solubility kinetic        > 40.2 µg/mL
 3  C[C@H](NC(=O)Cc1cccc2ccccc12)C(=O)N1CCOCC1  solubility kinetic          > 49 µg/mL
 4     CCNC1CCS(=O)(=O)C1 (stereo not drawn)  solubility kinetic        > 24.5 µg/mL
 5       CN(c1ncnc(N)c1[N+](=O)[O-])C1CCCCC1  solubility kinetic        > 37.7 µg/mL
 6                NCCCNC(=O)c1ccc(/C=N/O)nc1  solubility kinetic        > 33.3 µg/mL
 7            Cc1ccc(S(=O)(=O)NCCc2cccs2)cc1  solubility kinetic        > 42.2 µg/mL
 8     O=C(O)/C(=C/c1ccco1)NC(=O)c1ccc(Br)o1  solubility kinetic        > 48.9 µg/mL
 9     O=C(OCC(=O)N1CCc2ccccc2C1)c1ccc(O)cc1  solubility kinetic           4.5 µg/mL
10  Cc1ccc(C)c(SCC(=O)Nc2cccc(S(=O)(=O)N3CCOCC3)c2)c1  solubility kinetic          21.4 µg/mL
11  CCNC(=O)CC1SC(=Nc2ccc(C)c([N+](=O)[O-])c2)N(C)C1=O (stereo not drawn)  solubility kinetic        > 52.6 µg/mL
12   CCOC(=O)/C(=C/Nc1ccc(F)cc1)[N+](=O)[O-]  solubility kinetic          33.9 µg/mL
13   CCC(CC)C(=O)c1c[nH]c(C(=O)NCc2ccccc2)c1  solubility kinetic           2.2 µg/mL
14        O=C(COC(=O)c1ccc(F)cc1F)c1ccc[nH]1  solubility kinetic        > 39.8 µg/mL
15  CC1CCN(S(=O)(=O)c2ccc3c(c2)n(C)c(=O)n3C)CC1  solubility kinetic        > 48.5 µg/mL
16  C/C(=N\OC(=O)c1ccc(C)cc1)c1c(C)nc2cc(C)ccn12  solubility kinetic           6.6 µg/mL
17  NC(=O)c1ccc(N2CCNC(=O)C2)c([N+](=O)[O-])c1  solubility kinetic        > 39.6 µg/mL
18   O=C(CN1CCc2ccccc2C1)NCC(=O)Nc1ccc(F)cc1  solubility kinetic          17.1 µg/mL
19              Cc1nnc(SCC(=O)Nc2sccc2C#N)s1  solubility kinetic        > 44.5 µg/mL
20  CN1CCCC(OC(=O)/C(C#N)=C/c2ccccc2)C1.Cl (stereo not drawn)  solubility kinetic          > 46 µg/mL
21  Cc1ccc(N2C(=O)CC(Cc3ccc(Cl)cc3)C2=O)cc1 (stereo not drawn)  solubility kinetic           7.1 µg/mL
22          Cc1ccc(-c2nc(-c3ccncc3)no2)cc1Cl  solubility kinetic         < 0.2 µg/mL
23     COc1cccc(CNC(=O)CCc2ccc(OC)c(OC)c2)c1  solubility kinetic        > 49.4 µg/mL
24        COc1ccc(NC(=O)c2ccc3nc(C)sc3c2)cc1  solubility kinetic          15.4 µg/mL
25  CCCN(CC(=O)Nc1cc(Cl)ccc1Cl)C(=O)c1ccccn1  solubility kinetic        > 54.9 µg/mL
26  Cc1cc(C)c(NC(=O)C2CC(=O)N(C(C)C)C2)c(C)c1 (stereo not drawn)  solubility kinetic        > 43.3 µg/mL
27    O=C(NCC(=O)N1CCN(c2ccccc2F)CC1)c1ccco1  solubility kinetic        > 49.7 µg/mL
28  Cc1ccc(/C=C/C(=O)O)cc1S(=O)(=O)Nc1ccc(C(=O)O)cc1  solubility kinetic          42.4 µg/mL
29                O=C(CCC(=O)N1CCCC1)N1CCCC1  solubility kinetic        > 33.6 µg/mL
30  COc1ccccc1CC(=O)OCC(=O)N1CCN(c2ccc(F)cc2)CC1  solubility kinetic          > 58 µg/mL
31   O=C(COC(=O)c1ccc[nH]c1=O)NCCc1ccc(F)cc1  solubility kinetic          44.6 µg/mL
32  N#C/C(=C(/O)c1ccc([N+](=O)[O-])cc1)c1nc2ccccc2[nH]1  solubility kinetic         < 0.2 µg/mL
33        O=C(c1cccs1)N1CCN(c2cccc(Cl)c2)CC1  solubility kinetic          26.3 µg/mL
34  Cc1ccc(S(=O)(=O)N2CCN(C(C)C(=O)NCC(C)c3ccccc3)CC2)cc1 (stereo not drawn)  solubility kinetic          58.2 µg/mL
35  CCOc1ccccc1CN1C2CCC1CC(c1ccc(C)cc1)C2 (stereo not drawn)  solubility kinetic            35 µg/mL
36        O=C(CSc1ccccc1F)NC(=O)c1ccc(Cl)cc1  solubility kinetic           8.5 µg/mL
37            COc1ccccc1N1CCN(C(=O)C2CC2)CC1  solubility kinetic        > 39.1 µg/mL
38  CC(C)Cn1c(-c2cccnc2)nc2c1c(=O)[nH]c(=O)n2CC(C)C  solubility kinetic          45.7 µg/mL
